Target: HiBit-BRG1 fusion protein (Homo sapiens, UniProt P51532)
Construct: expressed in transfected cells
Sequence (P51532 whole entry, the tested form may be a part): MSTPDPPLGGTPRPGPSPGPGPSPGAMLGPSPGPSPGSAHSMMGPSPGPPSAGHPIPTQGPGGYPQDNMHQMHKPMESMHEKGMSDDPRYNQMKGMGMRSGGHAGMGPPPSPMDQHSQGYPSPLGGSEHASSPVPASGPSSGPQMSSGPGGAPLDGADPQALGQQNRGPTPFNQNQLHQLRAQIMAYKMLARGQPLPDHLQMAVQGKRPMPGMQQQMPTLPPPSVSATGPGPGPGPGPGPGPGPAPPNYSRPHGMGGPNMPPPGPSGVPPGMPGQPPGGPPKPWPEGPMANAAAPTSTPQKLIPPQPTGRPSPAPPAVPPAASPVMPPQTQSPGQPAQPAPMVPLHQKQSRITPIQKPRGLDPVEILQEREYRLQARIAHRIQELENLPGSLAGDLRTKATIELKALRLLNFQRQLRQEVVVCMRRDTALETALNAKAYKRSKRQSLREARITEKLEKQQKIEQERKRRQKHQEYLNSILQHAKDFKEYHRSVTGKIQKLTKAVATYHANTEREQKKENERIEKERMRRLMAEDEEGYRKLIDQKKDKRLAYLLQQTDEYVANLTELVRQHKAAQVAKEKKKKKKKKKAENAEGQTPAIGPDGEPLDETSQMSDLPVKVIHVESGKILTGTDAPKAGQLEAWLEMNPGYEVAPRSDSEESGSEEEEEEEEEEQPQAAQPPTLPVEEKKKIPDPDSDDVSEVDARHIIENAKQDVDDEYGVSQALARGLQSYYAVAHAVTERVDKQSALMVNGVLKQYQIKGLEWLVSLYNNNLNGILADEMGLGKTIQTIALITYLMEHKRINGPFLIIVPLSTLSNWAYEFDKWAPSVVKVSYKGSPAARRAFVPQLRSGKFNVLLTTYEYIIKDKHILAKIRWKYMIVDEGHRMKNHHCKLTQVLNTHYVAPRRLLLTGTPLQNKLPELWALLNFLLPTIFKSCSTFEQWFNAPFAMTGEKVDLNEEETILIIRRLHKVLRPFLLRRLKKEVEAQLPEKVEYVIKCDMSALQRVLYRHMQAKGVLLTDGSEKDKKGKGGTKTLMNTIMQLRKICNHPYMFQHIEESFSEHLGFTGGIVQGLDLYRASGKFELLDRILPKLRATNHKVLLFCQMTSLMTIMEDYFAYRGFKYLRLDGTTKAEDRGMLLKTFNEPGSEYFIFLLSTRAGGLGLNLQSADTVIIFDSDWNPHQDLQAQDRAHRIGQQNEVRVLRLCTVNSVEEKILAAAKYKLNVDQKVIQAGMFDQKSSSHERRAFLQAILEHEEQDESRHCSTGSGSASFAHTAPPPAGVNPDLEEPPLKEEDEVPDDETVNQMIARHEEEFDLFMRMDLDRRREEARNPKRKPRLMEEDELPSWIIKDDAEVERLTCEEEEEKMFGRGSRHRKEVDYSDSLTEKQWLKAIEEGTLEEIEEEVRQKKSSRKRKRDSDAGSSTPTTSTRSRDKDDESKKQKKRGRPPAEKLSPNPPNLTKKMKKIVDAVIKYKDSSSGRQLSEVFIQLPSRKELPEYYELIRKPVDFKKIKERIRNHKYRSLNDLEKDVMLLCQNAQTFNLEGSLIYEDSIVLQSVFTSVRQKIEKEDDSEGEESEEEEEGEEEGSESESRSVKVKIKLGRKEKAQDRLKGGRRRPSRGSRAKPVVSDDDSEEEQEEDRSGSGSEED
Assay: HiBiT-BRG1 cell-based degradation assay (Nano-Glo HiBiT Lytic Detection, 24 h)
Settings: HeLa cells expressing HiBit-BRG1 and LgBit, read-out: BRG1 HiBit Degradation IC50
Structures can show the parent of a compound that is named as a salt.
Provide the recorded DC50 for the entries that follow.

## Input // output DC50; input Cc1ncsc1-c1ccc(CNC(=O)[C@@H]2C[C@@H](O)CN2C(=O)[C@@H](NC(=O)COCCOCCOCCNC(=O)c2ccc(COC[C@H](NC(=O)c3ccn(S(C)(=O)=O)c3)C(=O)Nc3nc(-c4ccccc4)cs3)cc2)C(C)(C)C)cc1 [Compound 189] ; system HiBit-BRG1 fusion protein (Homo sapiens, UniProt P51532)
## Output > 10 µM

## Input // output DC50; input Cc1ncsc1-c1ccc(CNC(=O)[C@@H]2C[C@@H](O)CN2C(=O)[C@@H](NC(=O)CCCCCCCNC(=O)CN(C)c2cc(-c3cccc(-c4csc(NC(=O)CNC(=O)c5ccn(S(C)(=O)=O)c5)n4)c3)ccn2)C(C)(C)C)cc1 [Compound 88] ; system HiBit-BRG1 fusion protein (Homo sapiens, UniProt P51532)
## Output < 0.1 µM

## Input // output DC50; input CS(=O)(=O)n1ccc(C(=O)NCC(=O)Nc2nc(C3CCCN(C(=O)C4CCN(CCOc5ccc6c(c5)C(=O)N(C5CCC(=O)NC5=O)C6=O)CC4)C3)cs2)c1 (stereo not shown) [Compound 145, formate] ; system HiBit-BRG1 fusion protein (Homo sapiens, UniProt P51532)
## Output > 10 µM

## Input // output DC50; input Cc1ncsc1-c1ccc(CNC(=O)[C@@H]2C[C@@H](O)CN2C(=O)[C@@H](NC(=O)CN2CC3(CC(C(=O)NCc4cccc(-c5cccc(-c6csc(NC(=O)CNC(=O)c7ccn(S(C)(=O)=O)c7)n6)c5)c4)C3)C2)C(C)(C)C)cc1 [Compound 163] ; system HiBit-BRG1 fusion protein (Homo sapiens, UniProt P51532)
## Output > 10 µM

---

Biological target: HiBit-BRG1 fusion protein (Homo sapiens, UniProt P51532)
Construct: expressed in transfected cells
Assay: HiBiT-BRG1 cell-based degradation assay (Nano-Glo HiBiT Lytic Detection, 24 h)
Details: HeLa, HeLa cells expressing HiBit-BRG1 and LgBit, top dose 30 μM, read-out: BRG1 HiBit Degradation Maximum measured
Provide the recorded Dmax for the entries that follow.

## Input // fetch Dmax given entry CS(=O)(=O)n1ccc(C(=O)NCC(=O)Nc2nc(-c3cccc(-c4ccnc(C5(C(=O)NCCOCCOCCNc6cccc7c6C(=O)N(C6CCC(=O)NC6=O)C7=O)CC5)c4)c3)cs2)c1 (centres unmarked)
## Output 50 to 75%

## Input // fetch Dmax given entry CS(=O)(=O)n1ccc(C(=O)NCC(=O)Nc2nc(-c3cccc(-c4ccnc(N5CCN(C(=O)C6CC6CNC(=O)COc6cccc7c6C(=O)N(C6CCC(=O)NC6=O)C7=O)CC5)c4)c3)cs2)c1 (centres unmarked)
## Output < 50%

## Input // fetch Dmax given entry CS(=O)(=O)n1ccc(C(=O)N[C@@H](COCc2ccc(CNC(=O)CCN3CCN(c4ccc5c(c4)C(=O)N(C4CCC(=O)NC4=O)C5=O)CC3)cc2)C(=O)Nc2nc(-c3ccccc3)cs2)c1 (some centres unmarked)
## Output > 75%

## Input // fetch Dmax given entry "Cc1ncsc1-c1ccc(CNC(=O)[C@@H]2C[C@@H](O)CN2C(=O)[C@@H](NC(=O)CCCCCNC(=O)C2(c3cc(-c4cccc(-c5csc(NC(=O)CNC(=O)c6ccn(S(C)(=O)=O)c6)n5)c4)ccn3)CC2)C(C)(C)C)cc1"
## Output > 75%

## Input // fetch Dmax given entry CS(=O)(=O)n1ccc(C(=O)N[C@@H](CCOCCCC(=O)NCCOC2CN(c3ccc4c(c3)C(=O)N(C3CCC(=O)NC3=O)C4=O)C2)C(=O)Nc2nc(-c3ccccc3)cs2)c1 (some centres unmarked)
## Output < 50%

---

Provide the recorded Dmax for the entries that follow.
Biological target: HiBit-BRG1 fusion protein (Homo sapiens, UniProt P51532)
Construct: expressed in transfected cells
Assay: HiBiT-BRG1 cell-based degradation assay (Nano-Glo HiBiT Lytic Detection, 24 h)
Conditions: HeLa, HeLa cells expressing HiBit-BRG1 and LgBit, top dose 30 μM, read-out: BRG1 HiBit Degradation Maximum measured
Counter-ions that a name gives are not always drawn.

## Input // output Dmax; input CS(=O)(=O)n1ccc(C(=O)N[C@@H](CCCCNC(=O)CCCCCCOc2cccc3c2C(=O)N(C2CCC(=O)NC2=O)C3=O)C(=O)Nc2nc(-c3ccccc3)cs2)c1 (some centres unmarked) [Compound 290] ; system HiBit-BRG1 fusion protein (Homo sapiens, UniProt P51532)
## Output < 50%

## Input // output Dmax; input CN(CCNC(=O)c1ccc(COCC(NC(=O)c2ccn(S(C)(=O)=O)c2)C(=O)Nc2nc(-c3ccccc3)cs2)cc1)CCNc1cccc2c1C(=O)N(C1CCC(=O)NC1=O)C2=O (centres unmarked) [Compound 244] ; system HiBit-BRG1 fusion protein (Homo sapiens, UniProt P51532)
## Output < 50%

## Input // output Dmax; input Cc1ncsc1-c1ccc(CNC(=O)[C@@H]2C[C@@H](O)CN2C(=O)[C@@H](NC(=O)CCCCCCCCCCCCC(=O)NCc2ccc(COC[C@H](NC(=O)c3ccn(S(C)(=O)=O)c3)C(=O)Nc3nc(-c4ccccc4)cs3)cc2)C(C)(C)C)cc1 [Compound 211] ; system HiBit-BRG1 fusion protein (Homo sapiens, UniProt P51532)
## Output < 50%

## Input // output Dmax; input CS(=O)(=O)n1ccc(C(=O)N[C@@H](CCOCCCC(=O)N2CCC(CN3CCN(c4ccc5c(c4)C(=O)N(C4CCC(=O)NC4=O)C5=O)CC3)CC2)C(=O)Nc2nc(-c3ccccc3)cs2)c1 (some centres unmarked) [Compound 220, formate] ; system HiBit-BRG1 fusion protein (Homo sapiens, UniProt P51532)
## Output < 50%

## Input // output Dmax; input Cc1ncsc1-c1ccc(CNC(=O)[C@@H]2C[C@@H](O)CN2C(=O)[C@@H](NC(=O)COCC(=O)N2CCN(c3cc(-c4cccc(-c5csc(NC(=O)CNC(=O)c6ccn(S(C)(=O)=O)c6)n5)c4)ccn3)CC2)C(C)(C)C)cc1 [Compound 72] ; system HiBit-BRG1 fusion protein (Homo sapiens, UniProt P51532)
## Output < 50%

---

Target: HiBit-BRG1 fusion protein (Homo sapiens)
Construct: expressed in transfected cells
Test: HiBiT-BRG1 cell-based degradation assay (Nano-Glo HiBiT Lytic Detection, 24 h)
Conditions: HeLa cells expressing HiBit-BRG1 and LgBit, read-out: BRG1 HiBit Degradation IC50
Provide the recorded DC50 for the entries that follow.

## Input // fetch DC50 given entry CC(C)(C(=O)NCCCCCNc1cccc2c1C(=O)N(C1CCC(=O)NC1=O)C2=O)n1ccc(-c2cccc(-c3csc(NC(=O)CNC(=O)c4ccn(S(C)(=O)=O)c4)n3)c2)n1 (stereo not shown)
## Output > 10 µM

## Input // fetch DC50 given entry CS(=O)(=O)n1ccc(C(=O)N[C@@H](CCOCCCC(=O)N2CCN(CCOc3ccc4c(c3)C(=O)N(C3CCC(=O)NC3=O)C4=O)CC2)C(=O)Nc2nc(-c3ccccc3)cs2)c1 (stereo partly shown)
## Output > 10 µM

## Input // fetch DC50 given entry CS(=O)(=O)n1ccc(C(=O)N[C@@H](CCOCCCC(=O)N2CCN(CCCOc3ccc4c(c3)C(=O)N(C3CCC(=O)NC3=O)C4=O)CC2)C(=O)Nc2nc(-c3ccccc3)cs2)c1 (stereo partly shown)
## Output > 10 µM

## Input // fetch DC50 given entry "Cc1ncsc1-c1ccc(CNC(=O)[C@@H]2C[C@@H](O)CN2C(=O)[C@@H](NC(=O)CCCCCCCCC(=O)NCCOc2cc(-c3cccc(-c4csc(NC(=O)CNC(=O)c5ccn(S(C)(=O)=O)c5)n4)c3)ccn2)C(C)(C)C)cc1"
## Output 0.1 to 1 µM

## Input // fetch DC50 given entry CS(=O)(=O)n1ccc(C(=O)N[C@@H](CCCCNC(=O)CCCCCCCCCCNc2cccc3c2C(=O)N(C2CCC(=O)NC2=O)C3=O)C(=O)Nc2nc(-c3ccccc3)cs2)c1 (stereo partly shown)
## Output > 10 µM

## Input // fetch DC50 given entry "Cc1ncsc1-c1ccc(CNC(=O)[C@@H]2C[C@@H](O)CN2C(=O)[C@@H](NC(=O)CCCCCCCCCCCCCCCC(=O)NCc2cccc(-c3cccc(-c4csc(NC(=O)CNC(=O)c5ccn(S(C)(=O)=O)c5)n4)c3)c2)C(C)(C)C)cc1"
## Output > 10 µM

## Input // fetch DC50 given entry "Cc1ncsc1-c1ccc(CNC(=O)[C@@H]2C[C@@H](O)CN2C(=O)[C@@H](NC(=O)CCCCCNC(=O)CCCOCC[C@H](NC(=O)c2ccn(S(C)(=O)=O)c2)C(=O)Nc2nc(-c3ccccc3)cs2)C(C)(C)C)cc1"
## Output > 10 µM

## Input // fetch DC50 given entry CS(=O)(=O)n1ccc(C(=O)NCC(=O)Nc2nc(C3CCCN(C(=O)CCOCCOCCOc4ccc5c(c4)C(=O)N(C4CCC(=O)NC4=O)C5=O)C3)cs2)c1 (stereo not shown)
## Output > 10 µM

## Input // fetch DC50 given entry CS(=O)(=O)n1ccc(C(=O)NCC(=O)Nc2nc(-c3cccc(-c4ccnc(C5(C(=O)N6CCN(c7ccc8c(c7)C(=O)N(C7CCC(=O)NC7=O)C8=O)CC6)CC5)c4)c3)cs2)c1 (stereo not shown)
## Output > 10 µM

## Input // fetch DC50 given entry CS(=O)(=O)n1ccc(C(=O)NCC(=O)Nc2nc(-c3cccc(-c4ccnc(C5(C(=O)NCCOCCOCCNC(=O)COc6cccc7c6C(=O)N(C6CCC(=O)NC6=O)C7=O)CC5)c4)c3)cs2)c1 (stereo not shown)
## Output > 10 µM

Where do the numbers come from? From patent US12662479B2.
